- Tested on: Severe acute respiratory syndrome coronavirus 2
- ASSAY PROTOCOL: Inhibition of SARS-CoV-2 3CL protease at 50 uM using DABCYL-KTSAVLQ-SGFRKME-EDANS as substrate preincubated with enzyme for 30 mins followed by substrate addition and measured after 1 hr by fluorescence spectrophotometry relative to control
- CONDITION LABEL: time 1.5 hrs
MEASURED PROPERTY: inhibition (%)
Write it as a number; the unit % goes unstated.

Solved cases below.
>  <COMPOUND>
C/C=C/C(=O)N(c1ccc(C(C)(C)C)cc1)C(C(=O)NC1CCCCC1)c1cccnc1 (centres undefined)

>  <SYSTEM>
Severe acute respiratory syndrome coronavirus 2

>  <UNIT ANNOTATION>
%

>  <RESULT NUMBER>
63

$$$$
>  <COMPOUND>
N#CCNC(C(=O)NC1CCCCC1)c1cccnc1 (centres undefined)

>  <SYSTEM>
Severe acute respiratory syndrome coronavirus 2

>  <UNIT ANNOTATION>
%

>  <RESULT NUMBER>
25

$$$$
>  <COMPOUND>
C=CC(=O)N(c1ccc(C(C)(C)C)cc1)C(C(=O)NC(C)(C)C)c1cccnc1 (centres undefined)

>  <SYSTEM>
Severe acute respiratory syndrome coronavirus 2

>  <UNIT ANNOTATION>
%

>  <RESULT NUMBER>
68

$$$$

Input line: Determine its reported inhibition: C=C(C)C(=O)N(c1ccc(C(C)(C)C)cc1)C(C(=O)NC1CCCCC1)c1cccnc1 (centres undefined)
Output line: 30

Input line: Name the recorded inhibition of the item CC#CC(=O)N(c1ccc(OC(F)F)cc1)C(C(=O)NC1CCCCC1)c1cccnc1 (centres undefined) in your answer.
Output line: 77

Input line: Please give the documented inhibition of C/C=C/C(=O)N(c1ccc(C(C)(C)C)cc1)C(C(=O)NC1CCCCC1)c1ccncc1 (centres undefined)
Output line: 24

Input line: Identify the reported inhibition for the following entry. CC(C)(C)c1ccc(N(C(=O)/C=C/c2ccccc2)C(C(=O)NC2CCCCC2)c2cccnc2)cc1 (centres undefined)
Output line: 44

Input line: For the compound CC(C)(C)c1ccc(N(C(=O)CCl)C(C(=O)NC2CCCCC2)c2ccsc2)cc1 (centres undefined) , report inhibition.
Output line: 22

Input line: Dear colleague, please send me the reported inhibition for C=CC(=O)N(c1ccc(C(C)(C)C)cc1)C(C(=O)NC1CCCCC1)c1cccnc1 (centres undefined) when you can.
Output line: 84

Input line: Give the measured inhibition for CC#CC(=O)N(c1cccc(NC(C)=O)c1)C(C(=O)NC1CCCCC1)c1cccnc1 (centres undefined)
Output line: 43

Input line: Fill in inhibition for record CC(C)(C)c1ccc(N(C(=O)CC#N)C(C(=O)NC2CCCCC2)c2cccnc2)cc1 (centres undefined)
Output line: 74

Input line: Specify measured inhibition for CC(C)(C)c1ccc(N(C(=O)C2=CCCC2)C(C(=O)NC2CCCCC2)c2cccnc2)cc1 (centres undefined) .
Output line: 55
